Test system: Bacillus subtilis
Experiment: cleaved RNA product abundance (RNA/gDNA barcode ratio) relative to median wild-type variant (ratio to wild type); higher = more accumulation of the downstream cleavage product
Details: experiment (reporter, strain, medium): exp 4a: truncated aprE reporter, strain BJT201 with 2% xylose (RNase J1 expressed); cleavage site: cggR-gapA (positions -7 to +36 mutated)
property.name: cleaved RNA product abundance
Answer using only a numeral; do not append any unit.

Simply: `ACAGACGAAGGAGCCGCTAAGAAGTTATTAAGGGTTGAATAATCCCTCAATATAAATATCTCTCACTTATTTAAA` , Bacillus subtilis, cleaved RNA product abundance = 0.377

Simply: `ACAGACGAAGGAGCCGCAAAGAATTTATTAAGGGATGAATAATCCCTCAATCTAAATATCTCTCACTTATTTAAA` , Bacillus subtilis, cleaved RNA product abundance = 0.102

Simply: `ACAGACGAAGGAGCCGCAAAGAAGTTATTAAAGGATGAATAATCCCTCAATATGAATATCTCTCACTTATTTAAA` , Bacillus subtilis, cleaved RNA product abundance = 0.0586

Simply: `ACAGACGAAGGAGCCGCAATGAAGTTATCAAGGGATGAATAATCCCTCAATATAAATATCTCTCACTTATTTAAA` , Bacillus subtilis, cleaved RNA product abundance = 0.487

Simply: `ACAGACGAAGGAGCCGCAAAGAACTTATTAAGGCATGAATAATCCCTCAATATAAATATCTCTCACTTATTTAAA` , Bacillus subtilis, cleaved RNA product abundance = 0.099

Simply: `ACAGACGAAGGAGCCGCAAAGAAGTTATTAAGCGATGAATAATCGCTCAATATAAATATCTCTCACTTATTTAAA` , Bacillus subtilis, cleaved RNA product abundance = 0.726

Simply: `ACAGACGAAGGAGCCGCAAACAAGTTATTAAGGGAAGAATAATCCCTCAATATAAATATCTCTCACTTATTTAAA` , Bacillus subtilis, cleaved RNA product abundance = 0.558
